For each record, write down the corresponding log10 of INH.
test system: Saccharomyces cerevisiae; assay: Inhibition of Saccharomyces cerevisiae MKCDR1h multidrug transporter Cdr1p assessed as concentration required to threefold increase in rate of fluorescence signal relative to absence of inhibitor by fluorescein diacetate based high-throughput screening spectrofluorometric assay
Heads up: the numbers are on a log10 scale; they represent INH in µM.

**Query** Value lookup for log10 of INH; key = CSc1ccc2c(c1)N(CCC1CCCCN1C)c1ccccc1S2 (stereo not drawn)
**Result** 1.41

**Query** What about OCCN1CCN(CCCN2c3ccccc3Sc3ccc(C(F)(F)F)cc32)CC1 ?
**Result** 1.09

**Query** Likewise for COc1ccc2c(c1)N(C[C@H](C)CN(C)C)c1ccccc1S2 ?
**Result** 2.40

**Query** // next record CC(CN1c2ccccc2Sc2ccccc21)N(C)C (stereo not drawn)
**Result** 2.44

**Query** Entry to check: NCCCCN1c2ccccc2Sc2ccc(Cl)cc21
**Result** 0.28

**Query** Input CN(C)CCCN1c2ccccc2Sc2ccccc21
**Result** 2.44

**Query** Also, CCSc1ccc2c(c1)N(CCCN1CCN(C)CC1)c1ccccc1S2 please.
**Result** 0.97

**Query** # iterate: CN(C)CC/C=C1/c2ccccc2Sc2ccc(Cl)cc21
**Result** 1.72

**Query** Same read-out for OCCN1CCN(CCCN2c3ccccc3Sc3ccc(Cl)cc32)CC1 ?
**Result** 1.24

**Query** What about CN1CCN(CCCN2c3ccccc3Sc3ccc(C(F)(F)F)cc32)CC1 ?
**Result** 0.99

**Query** Next entry: COc1ccc2c(c1)N(C[C@@H](C)CN(C)C)c1ccccc1S2
**Result** 2.44

**Query** Entry NCCCN1c2ccccc2Sc2ccc(C(F)(F)F)cc21 please
**Result** 0.81

**Query** Check NCCCN1c2ccccc2Sc2ccccc21 too.
**Result** 1.56

**Query** Same thing, different compound: CN(C)CCCN1c2ccccc2Sc2ccc(C(F)(F)F)cc21
**Result** 1.69

**Query** Next: CCN(CC)CCN1c2ccccc2Sc2ccccc21
**Result** 2.50

**Query** Please do the same for CN(C)CCCN1c2ccccc2Sc2ccc(Cl)cc21 as well.
**Result** 1.76

**Query** Item: NCCCCN1c2ccccc2Sc2ccccc21
**Result** 1.46

**Query** Same thing, different compound: NCCCN1c2ccccc2Sc2ccc(Cl)cc21
**Result** 0.63

**Query** Then this compound: CN1CCN(CCCN2c3ccccc3Sc3ccc(Cl)cc32)CC1
**Result** 1.04

**Query** One more compound: NCCCCN1c2ccccc2Sc2ccc(C(F)(F)F)cc21
**Result** 0.66
